pIC50: −log10 of the molar value.
The following compounds were reported with pIC50 values on High affinity nerve growth factor receptor (Homo sapiens, UniProt P04629) in different studies.

query: Bench note: what pIC50 did COCCN1C[C@@H](NC(=O)Nc2cc(-c3ccc(F)cc3)nn2C)[C@H](c2ccccc2)C1 show?
result: > 7.00

query: Bench note: what pIC50 did CC(C)n1cc(C(=O)Nc2ccc(Oc3ccnc4cc(OCCCN5CCC(C)(C)CC5)c5c(c34)OCCO5)c(F)c2)c(=O)n(-c2ccc(F)cc2)c1=O show?
result: > 7.30

query: Bench note: what pIC50 did CNc1ncnc2[nH]cc(C(=O)c3cnc(NC4CCC(F)(F)CC4)c(F)c3)c12 show?
result: > 7.00

query: Bench note: what pIC50 did COCCN1C[C@@H](NC(=O)Nc2cc(C(C)(C)C)nn2C2CCOCC2)[C@H](c2ccccc2)C1 show?
result: 5.00 to 6.00

query: Bench note: what pIC50 did C[C@@H]1CCc2ncc(F)cc2N2CCCN2c2ccn3ncc(c3n2)C(=O)N1 show?
result: > 7.00

query: Bench note: what pIC50 did Cc1cnc(Nc2cc(C3CC3)[nH]n2)nc1N[C@@H](CO)c1ccc(F)cc1 show?
result: 6.97

query: Bench note: what pIC50 did CCOc1ccn(-c2ccc(F)cc2)c(=O)c1C(=O)Nc1ccc(Oc2ccnc3ccc4c(c23)OCCO4)cc1 show?
result: 6.30 to 7.30

query: Bench note: what pIC50 did COCCN1C[C@@H](NC(=O)Nc2cc(C3CCCC3)nn2-c2ccccc2)[C@H](c2ccccc2)C1 (relative stereo) show?
result: > 7.00

query: Bench note: what pIC50 did COCCN1C[C@@H](NC(=O)Nc2c(C)c(-c3ccccc3)nn2C)[C@H](c2ccccc2)C1 show?
result: 5.00 to 6.00

query: Bench note: what pIC50 did CC(C)n1cc(C(=O)Nc2ccc(Oc3ccnc4cc(OCC(C)(C)O)c5c(c34)OCCO5)c(F)c2)c(=O)n(-c2ccc(F)cc2)c1=O show?
result: > 7.30

query: Bench note: what pIC50 did O=C1N[C@H](C2CC2)CCc2ncc(F)cc2[C@@H]2[C@H]3C[C@H]3CN2c2ccn3ncc1c3n2 show?
result: < 6.00

query: Bench note: what pIC50 did CNC(=O)c1ccc(-c2cc(O[C@H](C)C(F)(F)F)c3c(N)n[nH]c3c2)cc1N1CCN(c2cccnc2)CC1 show?
result: 6.85

query: Bench note: what pIC50 did NC(=O)c1ccc(-c2ccc3c(N)n[nH]c3c2)cc1N1CCN(c2cccnc2)CC1 show?
result: 6.64

query: Bench note: what pIC50 did CCOc1ccn(-c2ccc(F)cc2)c(=O)c1C(=O)Nc1ccc(Oc2ccnc3cc(OCC4CC4)c4c(c23)OCCO4)c(F)c1 show?
result: 6.30 to 7.30

query: Bench note: what pIC50 did CC(=O)N1CCN(c2ccc(NC(=O)c3coc4c3C(=O)N(CCO)CC4)c(OCCO)n2)CC1 show?
result: 7.02

---

The following molecules were reported with pIC50 values on High affinity nerve growth factor receptor (Homo sapiens, UniProt P04629) in different studies.
Keep it numeric: pIC50 is minus log10 of the concentration in mol/L.

query: Bench note: what pIC50 did CC(C)N1CCN(c2cc(-c3cc(OC(C)C(F)(F)F)c4c(N)n[nH]c4c3)ccc2C(N)=O)CC1 (stereo not drawn) show?
result: 6.42

query: Bench note: what pIC50 did COc1cc(Cn2cnc3cc(-c4cnn(C5CCNCC5)c4)cnc32)ccc1OCc1ccc(C)nc1 show?
result: 9.05

query: Bench note: what pIC50 did CNC(=O)c1ccc(-c2cc(OC3CCOCC3)c3c(N)n[nH]c3c2)cc1N1CCN(CCC(F)(F)F)CC1 show?
result: 7.94

query: Bench note: what pIC50 did CN1CCc2occ(C(=O)Nc3ccc(F)cn3)c2C1=O show?
result: 5.24

query: Bench note: what pIC50 did NC(=O)c1ccc(-c2ccc3c(N)n[nH]c3c2)cc1N1CCN(Cc2ccccc2)CC1 show?
result: 7.36

query: Bench note: what pIC50 did Fc1ccc(F)c(Cc2ccc3[nH]nc(/C=C/c4ccccn4)c3c2)c1 show?
result: 8.15

---

The following compounds were reported with pIC50 values on High affinity nerve growth factor receptor (Homo sapiens, UniProt P04629) in different studies.
pIC50: −log10 of the molar value.

query: Quick check: pIC50 on High affinity nerve growth factor receptor (Homo sapiens, UniProt P04629), item CCOc1ccn(-c2ccc(F)cc2)c(=O)c1C(=O)Nc1ccc(Oc2ccnc3cc(OCC#N)c4c(c23)OCCO4)c(F)c1 ?
result: > 7.30

query: Quick check: pIC50 on High affinity nerve growth factor receptor (Homo sapiens, UniProt P04629), item COCCN1C[C@@H](NC(=O)Nc2c(Cl)c([C@H]3C[C@@H](O)C3)nn2-c2ccccc2)[C@H](c2ccc(F)c(F)c2)C1 ?
result: > 7.00

query: Quick check: pIC50 on High affinity nerve growth factor receptor (Homo sapiens, UniProt P04629), item COCCN1C[C@@H](NC(=O)Nc2c(-c3ccccc3)nn(C)c2C(F)(F)F)[C@H](c2ccc(F)c(F)c2)C1 ?
result: > 7.00

query: Quick check: pIC50 on High affinity nerve growth factor receptor (Homo sapiens, UniProt P04629), item COCCN1C[C@H](NC(=O)Nc2c3c(nn2-c2ccccc2)CCC3)[C@@H](c2cncc(F)c2)C1 ?
result: > 7.00

query: Quick check: pIC50 on High affinity nerve growth factor receptor (Homo sapiens, UniProt P04629), item COCCN1C[C@@H](NC(=O)Nc2cc(C(C)C)nn2-c2ccccc2)[C@H](c2ccccc2F)C1 (relative stereo) ?
result: 6.00 to 7.00

query: Quick check: pIC50 on High affinity nerve growth factor receptor (Homo sapiens, UniProt P04629), item O=C(Nc1c2c(nn1-c1ccccc1)CCC2)N[C@@H]1CN(CC(F)(F)F)C[C@H]1c1cccc(Cl)c1 (relative stereo) ?
result: 6.00 to 7.00

query: Quick check: pIC50 on High affinity nerve growth factor receptor (Homo sapiens, UniProt P04629), item CCOc1nc(N2CCN(C(C)=O)CC2)ccc1NC(=O)c1coc2c1C(=O)N(C[C@@H](C)O)CC2 ?
result: 8.37

query: Quick check: pIC50 on High affinity nerve growth factor receptor (Homo sapiens, UniProt P04629), item COc1cc2nccc(Oc3ccc(NC(=O)c4cn(C)c(=O)n(-c5ccc(F)cc5)c4=O)cc3)c2c2c1OCCO2 ?
result: > 7.30

query: Quick check: pIC50 on High affinity nerve growth factor receptor (Homo sapiens, UniProt P04629), item COCCN1C[C@@H](NC(=O)Nc2cc(-c3ccccc3)nn2-c2ccccc2)[C@H](c2ccc(F)c(F)c2)C1 ?
result: > 7.00

query: Quick check: pIC50 on High affinity nerve growth factor receptor (Homo sapiens, UniProt P04629), item Cc1ccc(NC(=O)N[C@@H]2c3cc(F)c(F)cc3C(C)(C)C[C@H]2O)c(-c2ccccc2)n1 (racemic) ?
result: ≥ 7.30

query: Quick check: pIC50 on High affinity nerve growth factor receptor (Homo sapiens, UniProt P04629), item Fc1cc(OCc2nc3ccccc3[nH]2)c(F)cc1Cc1c[nH]c2ncc(Cl)cc12 ?
result: ≥ 5.00

query: Quick check: pIC50 on High affinity nerve growth factor receptor (Homo sapiens, UniProt P04629), item C[C@@H]1CCOc2ccc(F)cc2CN(C)c2ccc3ncnc(c3n2)N1 ?
result: > 7.30

query: Quick check: pIC50 on High affinity nerve growth factor receptor (Homo sapiens, UniProt P04629), item CNC(=O)c1ccc(-c2cc(OC3CCOCC3)c3c(C)n[nH]c3c2)cc1N1CCN(C(=O)CC(C)C)CC1 ?
result: 7.23

query: Quick check: pIC50 on High affinity nerve growth factor receptor (Homo sapiens, UniProt P04629), item COCCN1C[C@@H](NC(=O)Nc2c(C)c(-c3cnn(C)c3)nn2-c2ccccc2)[C@H](c2ccc(Cl)c(F)c2)C1 (relative stereo) ?
result: > 7.00

query: Quick check: pIC50 on High affinity nerve growth factor receptor (Homo sapiens, UniProt P04629), item CN1CCN(Cc2ccc(C(=O)Nc3cnn4ccc(N5CCC[C@@H]5c5cc(F)ccc5F)nc34)cc2)CC1 ?
result: 8.52

query: Quick check: pIC50 on High affinity nerve growth factor receptor (Homo sapiens, UniProt P04629), item COc1cc(N2CCNCC2)ccc1NC(=O)c1coc2c1C(=O)NC(C)(C)C2 ?
result: 7.55

query: Quick check: pIC50 on High affinity nerve growth factor receptor (Homo sapiens, UniProt P04629), item CCC(CC)Nc1ncnc2[nH]cc(C(=O)c3ccc(Nc4ccc(OC)nc4)nc3F)c12 ?
result: > 8.00

query: Quick check: pIC50 on High affinity nerve growth factor receptor (Homo sapiens, UniProt P04629), item COCCN1C[C@@H](NC(=O)Nc2c3c(nn2C)CCC3)[C@H](c2ccccc2)C1 (relative stereo) ?
result: 5.00 to 6.00

query: Quick check: pIC50 on High affinity nerve growth factor receptor (Homo sapiens, UniProt P04629), item Fc1cccc(Cc2ccc3[nH]nc(/C=C/c4ccccn4)c3c2)c1F ?
result: 7.82

query: Quick check: pIC50 on High affinity nerve growth factor receptor (Homo sapiens, UniProt P04629), item COCCCc1cc(F)c(C(F)(F)F)cc1NC(=O)Nc1c(C)c(-c2ccc(=O)n(C)c2)nn1-c1ccccc1 ?
result: > 7.00

query: Quick check: pIC50 on High affinity nerve growth factor receptor (Homo sapiens, UniProt P04629), item CNC(=O)c1ccc(-c2cc(OC(C)C(F)(F)F)c3c(N)n[nH]c3c2)cc1N1CCN(c2cccnc2)CC1 (centres unmarked) ?
result: 7.59

query: Quick check: pIC50 on High affinity nerve growth factor receptor (Homo sapiens, UniProt P04629), item COc1cc2nccc(Oc3ccc(NC(=O)c4cn(C(C)C)c(=O)n(C5CCCCC5)c4=O)cc3F)c2c2c1OCCO2 ?
result: 5.30 to 6.30

query: Quick check: pIC50 on High affinity nerve growth factor receptor (Homo sapiens, UniProt P04629), item CCOc1nn(-c2ccccc2)c(NC(=O)N[C@@H]2CN(c3c(F)cccc3F)C[C@H]2c2ccccc2)c1C ?
result: 6.00 to 7.00

query: Quick check: pIC50 on High affinity nerve growth factor receptor (Homo sapiens, UniProt P04629), item CCc1ccc(Nc2ccc(Cc3c[nH]c4ncc(C)cc34)c(F)n2)cn1 ?
result: > 8.00

query: Quick check: pIC50 on High affinity nerve growth factor receptor (Homo sapiens, UniProt P04629), item Clc1ccccc1CNc1ccc(Cc2c[nH]c3ncncc23)cn1 ?
result: ≥ 5.00

query: Quick check: pIC50 on High affinity nerve growth factor receptor (Homo sapiens, UniProt P04629), item Cc1cc(NC(=O)N[C@@H]2c3ccccc3C(C)(C)C[C@H]2O)c(-c2ccccc2)nc1-c1cnn(C)c1 ?
result: ≥ 7.30

query: Quick check: pIC50 on High affinity nerve growth factor receptor (Homo sapiens, UniProt P04629), item CNC(=O)c1ccc(-c2cc(OC3CCCC3)c3c(C)n[nH]c3c2)cc1N1CCN(C(=O)OCc2ccccc2)CC1 ?
result: 7.29

query: Quick check: pIC50 on High affinity nerve growth factor receptor (Homo sapiens, UniProt P04629), item O=C(Nc1ccc(Oc2ccnc3ccc4c(c23)OCCO4)cc1)c1cccn(-c2ccc(F)cc2)c1=O ?
result: 6.30 to 7.30

query: Quick check: pIC50 on High affinity nerve growth factor receptor (Homo sapiens, UniProt P04629), item Cc1c(C#Cc2cnc3ccc(N4CCN(C5COC5)CC4)nn23)cccc1C(=O)Nc1cc(Cl)cc(C(F)(F)F)c1 ?
result: 7.00 to 8.00
